assay.notes: reduction of polyQ htt aggregates in cells – imaging, exon1htt(103Q)mCFP cells, high-content imaging, primary screen (AID 483);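 also: compound exposure lasted 3 days before fixation; percent of the per-plate median nuclei count of sample wells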
measurement.context: exon1htt(103Q)mCFP cell line, aggregate imaging, at 2 µM; measured here: cell count, toxicity
property.measured: nuclei count (%)
Your answer should be a plain number; it is taken to be in %.

[
  {
    "query.smiles": "Cn1nnnc1SCC(=O)N1CCN(c2cccc(Cl)c2)CC1",
    "readout.unit": "%",
    "nuclei count": 94.4
  },
  {
    "query.smiles": "O=C(c1cc2cc(Cl)cc(Cl)c2oc1=O)N1CCOCC1",
    "readout.unit": "%",
    "nuclei count": 87.4
  },
  {
    "query.smiles": "CCOc1ccc2nc(SCC(=O)N3CCCCCC3)c(C#N)cc2c1",
    "readout.unit": "%",
    "nuclei count": 98.1
  },
  {
    "query.smiles": "COc1ccc(NC(=O)CN2CCCCC2)cc1",
    "readout.unit": "%",
    "nuclei count": 110
  },
  {
    "query.smiles": "CCc1nn2c(N3CCOCC3)cc(C)nc2c1-c1ccc(F)cc1",
    "readout.unit": "%",
    "nuclei count": 101
  }
]

Shift focus to the following entry.
[Q] Specify measured nuclei count for COc1ccc(NC(=O)CSc2nnc(-c3ccccc3)n2N)cc1 .
[A] 103

----------
# inhibition per record follows
assay.notes: blockers of RIG-like receptor reporter activation – cell-based, Sendai virus stimulus, luciferase, 10K MLSCN set, TLR/RLR signaling modifier project, primary screen (AID 602276);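 also: firefly luciferase from ISG56 promoter only with Renilla not read in this screen; 0% = Sendai virus plus DMSO and 100% = medium plus DMSO without virus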
measurement.context: HEK293 RL24 IRF3 luciferase reporter, at 10 µM, stronger effect = higher value
Your answer should be a plain number; it is taken to be in %.

The examples below pair each entry with its known result.
[
  {
    "molecule": "CC(NC(=O)C1CC1)C(c1cccs1)N1CCN(c2ccccc2)CC1 (stereo unspecified)",
    "inhibition [%]": 6.3
  },
  {
    "molecule": "Cc1cccc(NC(=O)Cn2c(=O)n(C)c3ccccc32)c1",
    "inhibition [%]": 9.53
  },
  {
    "molecule": "COc1cccc(C(=O)N2CCCC(c3nc(-c4cccs4)no3)C2)c1 (stereo unspecified)",
    "inhibition [%]": 24.8
  }
]

[Q] Specify measured inhibition for O=C(c1ccc2nc(N3CCOCC3)sc2c1)N1CCCC1 .
[A] 3.55

[Q] Specify measured inhibition for CC(Sc1nc(-c2ccccc2)cc(C(F)(F)F)n1)C(=O)N1CCCC1 (stereo unspecified) .
[A] 5.88

[Q] Specify measured inhibition for COc1cc(OC)nc(NC(=O)CSc2nc3ccccc3o2)n1 .
[A] 12.8

[Q] Specify measured inhibition for O=C(NC1CCCC1)C(c1cccs1)N(C(=O)c1ccno1)c1ccccc1 (stereo unspecified) .
[A] 3.89

[Q] Specify measured inhibition for COc1cccc(-c2nnn(CC(=O)O)n2)c1 .
[A] 6.2

----------
assay.notes: inhibitors of TNFa-induced NFkB p65 translocation, primary screen, imaging, HUVEC, MLSMR starter and 10KST1 sets (AID 438);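 also: compound added about 3h40 before a 20 min TNFalpha stimulation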
measurement.context: HUVEC TNFa-induced p65 nuclear translocation; measured here: nuclei count (cytotoxicity indicator), at 2.08 µM
property.measured: cell count
Reply briefly: the number, and no unit.

[
  {
    "compound": "CCc1nnc2n1N=C(c1ccc(-c3ccc(Cl)cc3Cl)o1)CS2",
    "cell count": 480
  },
  {
    "compound": "CSc1nc(C)cc(Oc2ccc(=O)n(C)n2)n1",
    "cell count": 380
  },
  {
    "compound": "Cc1ccc(CCNC(=O)CC2Oc3ccc(C)cc3NC2=O)cc1 (centres undefined)",
    "cell count": 644
  },
  {
    "compound": "CCOC(=O)CN(C(=O)CSc1nnc(-c2ccncc2)n1CCCN(C)C)c1ccccc1",
    "cell count": 570
  },
  {
    "compound": "CCN1CCCC1CNC(=O)CS(=O)(=O)Cc1nc(-c2ccccc2C)oc1C (centres undefined)",
    "cell count": 834
  },
  {
    "compound": "CCOC(=O)N1CCC(N(C(=O)Nc2cccc(OC)c2)C(C)CC)CC1 (centres undefined)",
    "cell count": 534
  }
]

Shift focus to the following entry.
[Q] Specify measured cell count for CCN(CC)CCOC(=O)c1c(C)oc2ccc(O)cc12 .
[A] 418
